IC50 by entry:
biological target: CaV2.2 (Homo sapiens); construct: expressed in transfected cells; host or cells: HEK293; test: VIPR optical membrane potential assay with electrical stimulation; format: cell-based; conditions: Table 3, biological assay data; read-out: IC50
Sequence (Q00975 whole entry): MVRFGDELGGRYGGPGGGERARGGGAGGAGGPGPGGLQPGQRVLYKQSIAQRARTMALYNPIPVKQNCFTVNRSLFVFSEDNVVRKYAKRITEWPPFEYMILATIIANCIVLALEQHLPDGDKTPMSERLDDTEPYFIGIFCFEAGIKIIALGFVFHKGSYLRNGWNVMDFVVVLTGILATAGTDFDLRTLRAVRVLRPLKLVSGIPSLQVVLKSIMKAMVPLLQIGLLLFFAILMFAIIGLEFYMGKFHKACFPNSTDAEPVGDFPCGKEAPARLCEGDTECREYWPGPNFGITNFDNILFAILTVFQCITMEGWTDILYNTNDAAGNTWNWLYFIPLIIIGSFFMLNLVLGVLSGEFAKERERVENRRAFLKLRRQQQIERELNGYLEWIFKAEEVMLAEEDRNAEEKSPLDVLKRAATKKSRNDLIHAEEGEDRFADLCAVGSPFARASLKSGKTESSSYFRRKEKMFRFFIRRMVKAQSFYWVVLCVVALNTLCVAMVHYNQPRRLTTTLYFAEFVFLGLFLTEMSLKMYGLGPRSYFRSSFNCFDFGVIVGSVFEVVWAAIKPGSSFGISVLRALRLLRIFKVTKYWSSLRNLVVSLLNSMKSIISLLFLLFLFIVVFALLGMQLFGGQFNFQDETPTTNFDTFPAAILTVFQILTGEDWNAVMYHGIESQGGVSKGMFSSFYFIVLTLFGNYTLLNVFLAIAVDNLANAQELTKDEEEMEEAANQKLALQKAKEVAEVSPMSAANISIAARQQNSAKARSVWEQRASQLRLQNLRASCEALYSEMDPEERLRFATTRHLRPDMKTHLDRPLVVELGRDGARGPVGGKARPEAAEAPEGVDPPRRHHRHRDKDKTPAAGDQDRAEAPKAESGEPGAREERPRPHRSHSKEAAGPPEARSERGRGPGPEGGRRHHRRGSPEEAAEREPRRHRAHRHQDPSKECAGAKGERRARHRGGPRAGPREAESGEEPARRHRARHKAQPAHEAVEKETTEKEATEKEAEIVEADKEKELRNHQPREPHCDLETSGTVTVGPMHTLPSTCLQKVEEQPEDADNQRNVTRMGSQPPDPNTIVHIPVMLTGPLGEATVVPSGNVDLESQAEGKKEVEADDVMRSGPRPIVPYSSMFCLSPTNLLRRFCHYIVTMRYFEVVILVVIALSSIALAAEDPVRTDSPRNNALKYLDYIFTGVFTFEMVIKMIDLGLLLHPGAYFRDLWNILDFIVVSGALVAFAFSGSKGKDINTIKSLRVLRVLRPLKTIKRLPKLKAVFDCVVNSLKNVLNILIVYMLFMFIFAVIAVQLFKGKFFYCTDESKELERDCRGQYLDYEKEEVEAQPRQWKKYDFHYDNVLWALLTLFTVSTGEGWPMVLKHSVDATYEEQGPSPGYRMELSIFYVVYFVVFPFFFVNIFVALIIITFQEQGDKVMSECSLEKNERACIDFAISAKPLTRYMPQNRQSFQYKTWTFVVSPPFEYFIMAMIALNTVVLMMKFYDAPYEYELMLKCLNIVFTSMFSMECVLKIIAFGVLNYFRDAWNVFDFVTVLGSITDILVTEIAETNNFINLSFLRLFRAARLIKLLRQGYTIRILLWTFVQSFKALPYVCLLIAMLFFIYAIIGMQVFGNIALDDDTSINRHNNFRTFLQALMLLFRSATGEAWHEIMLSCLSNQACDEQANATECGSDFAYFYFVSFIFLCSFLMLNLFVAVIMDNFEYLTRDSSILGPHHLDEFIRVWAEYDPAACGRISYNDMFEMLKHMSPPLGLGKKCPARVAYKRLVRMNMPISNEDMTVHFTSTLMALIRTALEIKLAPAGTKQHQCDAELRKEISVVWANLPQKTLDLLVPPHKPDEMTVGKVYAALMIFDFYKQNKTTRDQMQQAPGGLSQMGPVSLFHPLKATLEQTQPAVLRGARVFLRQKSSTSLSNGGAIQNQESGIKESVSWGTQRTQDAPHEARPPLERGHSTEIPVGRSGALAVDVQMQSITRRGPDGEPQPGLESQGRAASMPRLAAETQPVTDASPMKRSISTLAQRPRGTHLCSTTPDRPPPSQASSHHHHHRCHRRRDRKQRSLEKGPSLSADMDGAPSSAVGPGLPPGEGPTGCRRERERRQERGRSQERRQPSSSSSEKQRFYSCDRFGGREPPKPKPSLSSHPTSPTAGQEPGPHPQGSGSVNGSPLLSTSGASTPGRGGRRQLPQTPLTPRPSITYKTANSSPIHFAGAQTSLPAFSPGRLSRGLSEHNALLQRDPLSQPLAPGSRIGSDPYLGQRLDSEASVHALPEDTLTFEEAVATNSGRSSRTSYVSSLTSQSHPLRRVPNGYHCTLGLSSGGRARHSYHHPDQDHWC
Sequence (P54284 whole entry partner): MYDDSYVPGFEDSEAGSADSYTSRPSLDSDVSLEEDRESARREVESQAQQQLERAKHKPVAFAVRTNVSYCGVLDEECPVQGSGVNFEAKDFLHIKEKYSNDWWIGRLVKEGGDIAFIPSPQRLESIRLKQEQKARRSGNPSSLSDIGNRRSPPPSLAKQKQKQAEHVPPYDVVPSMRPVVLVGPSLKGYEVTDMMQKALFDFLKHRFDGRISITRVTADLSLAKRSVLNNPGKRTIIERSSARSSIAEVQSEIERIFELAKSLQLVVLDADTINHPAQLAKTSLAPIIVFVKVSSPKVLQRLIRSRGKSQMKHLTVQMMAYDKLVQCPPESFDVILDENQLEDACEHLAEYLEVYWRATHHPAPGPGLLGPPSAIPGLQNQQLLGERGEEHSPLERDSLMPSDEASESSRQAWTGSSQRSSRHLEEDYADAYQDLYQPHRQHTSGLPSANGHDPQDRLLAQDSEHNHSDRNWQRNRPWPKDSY
Sequence (P54289 25-946 partner limits assumed): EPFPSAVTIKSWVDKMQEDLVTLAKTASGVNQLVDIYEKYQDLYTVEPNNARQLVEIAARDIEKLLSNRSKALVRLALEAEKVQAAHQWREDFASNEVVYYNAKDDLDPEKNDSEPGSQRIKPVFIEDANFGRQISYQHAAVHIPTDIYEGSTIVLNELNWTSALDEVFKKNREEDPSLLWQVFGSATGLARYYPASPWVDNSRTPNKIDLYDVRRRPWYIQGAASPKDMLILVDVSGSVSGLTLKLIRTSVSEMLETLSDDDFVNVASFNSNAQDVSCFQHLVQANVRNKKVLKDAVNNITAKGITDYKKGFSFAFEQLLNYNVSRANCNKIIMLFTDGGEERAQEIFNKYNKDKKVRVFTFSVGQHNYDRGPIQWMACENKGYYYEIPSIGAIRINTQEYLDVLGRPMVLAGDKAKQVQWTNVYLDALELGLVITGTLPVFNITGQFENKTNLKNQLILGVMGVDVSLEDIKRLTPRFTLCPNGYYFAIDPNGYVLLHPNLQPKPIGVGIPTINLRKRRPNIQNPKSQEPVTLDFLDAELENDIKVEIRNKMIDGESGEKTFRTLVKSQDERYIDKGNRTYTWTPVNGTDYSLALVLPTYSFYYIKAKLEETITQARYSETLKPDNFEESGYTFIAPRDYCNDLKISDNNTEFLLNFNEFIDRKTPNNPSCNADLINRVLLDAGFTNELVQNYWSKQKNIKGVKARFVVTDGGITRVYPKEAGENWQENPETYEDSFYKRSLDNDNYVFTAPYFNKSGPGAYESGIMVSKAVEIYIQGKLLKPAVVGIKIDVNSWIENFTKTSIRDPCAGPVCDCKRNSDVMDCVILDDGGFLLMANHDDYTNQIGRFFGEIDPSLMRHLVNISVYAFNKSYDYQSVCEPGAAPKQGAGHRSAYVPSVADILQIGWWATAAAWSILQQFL
Sequence (P54289 947-1103 partner limits assumed): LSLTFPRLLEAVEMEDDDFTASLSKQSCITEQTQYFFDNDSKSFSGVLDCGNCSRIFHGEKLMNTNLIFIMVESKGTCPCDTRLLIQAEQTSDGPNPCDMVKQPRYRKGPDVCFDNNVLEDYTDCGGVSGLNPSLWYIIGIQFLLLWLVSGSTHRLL

{"columns": ["compound", "IC50"],
 "data": [
  ["CC1CCN(S(=O)(=O)c2ccc3[nH]c(C(=O)NCCCc4ccccc4)cc3c2)CC1 [compound 98]", "< 5 µM"],
  ["Cc1c(C(=O)NCC2CCCO2)[nH]c2ccc(S(=O)(=O)N3CCC(C)CC3)cc12 (centres unmarked) [compound 355]", "5 to 20 µM"],
  ["CC1CC(C)CN(S(=O)(=O)c2ccc3[nH]c(C(=O)N4CCCCCC4)cc3c2)C1 (centres unmarked) [compound 126]", "< 5 µM"],
  ["CCCCN(C)C(=O)c1cc2cc(S(=O)(=O)N3CCC(C)CC3)ccc2o1 [compound 83]", "< 5 µM"],
  ["Cc1c(C(=O)N2CCC(C)CC2)oc2ccc(S(=O)(=O)N3CCC4(CC3)OCCO4)cc12 [compound 4]", "5 to 20 µM"],
  ["O=C(NCC1CCOCC1)c1cc2cc(S(=O)(=O)N3CCCCCC3)ccc2o1 [compound 363]", "5 to 20 µM"],
  ["Cc1c(C(=O)NCC2CCOCC2)oc2ccc(S(=O)(=O)N3CCCCCC3)cc12 [compound 38]", "5 to 20 µM"],
  ["Cc1c(C(=O)NC2CC2)oc2ccc(S(=O)(=O)NCc3ccncc3)cc12 [compound 302]", "< 20 µM"]
]}
